All figures here come from patent US20230374132A1.

study.system: T1, human CD3 E&D complex protein (Sino Biological Inc., CT026H0323H) (human, UniProt P07766 23-126; P04234 22-105)
T1 construct: bought heterodimer; also called human CD3 protein (CT026H0323H)
T1 sequence (P07766 23-126, chain 1 of 2): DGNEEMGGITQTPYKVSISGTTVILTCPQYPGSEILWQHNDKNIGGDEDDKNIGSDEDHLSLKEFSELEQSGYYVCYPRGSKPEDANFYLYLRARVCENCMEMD
T1 sequence (P04234 22-105, chain 2 of 2): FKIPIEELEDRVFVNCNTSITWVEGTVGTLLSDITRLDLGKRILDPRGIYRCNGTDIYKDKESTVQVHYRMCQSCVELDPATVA
protocol.summary: BLI, antibody on sensor
quantity: pKd
For clarity, pKd is expressed as the negative log10 of concentration in mol/L.

Challenge: Supply measured pKd of hzsp34.94 (antibody, human IgG1, lambda, L234A L235A, V domains shown, CDR mutant of hzsp34.24; IgG1 L234A L235A, lambda) VH: EVQLVESGGGLVQPGGSLKLSCAASGFTFNTYAMNWVRQASGKGLEWVGRIRSKYNNYATYYADSVKDRFTISRDDSKSTLYLQMNSLKTEDTAVYYCARHGNFGQSYASWFAYWGQGTTVTVSS VL: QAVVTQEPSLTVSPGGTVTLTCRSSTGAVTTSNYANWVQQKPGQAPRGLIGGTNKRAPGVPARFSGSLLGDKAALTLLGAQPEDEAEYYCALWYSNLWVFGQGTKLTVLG in your reply.
Response given: 9.01

Challenge: Supply measured pKd of hzsp34.93 (antibody, human IgG1, lambda, L234A L235A, V domains shown, CDR mutant of hzsp34.24; IgG1 L234A L235A, lambda) VH: EVQLVESGGGLVQPGGSLKLSCAASGFTFNTYAMNWVRQASGKGLEWVGRIRSKYNNYATYYADSVKDRFTISRDDSKSTLYLQMNSLKTEDTAVYYCARHGNFGQSAVSWFAYWGQGTTVTVSS VL: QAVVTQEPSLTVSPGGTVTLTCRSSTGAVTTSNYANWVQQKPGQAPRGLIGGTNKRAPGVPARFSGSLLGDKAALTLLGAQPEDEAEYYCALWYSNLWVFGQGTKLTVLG in your reply.
Response given: 9.01
